Measured pKi (human ETB receptor (Homo sapiens, UniProt P24530))
Give only the number. pKi is defined as minus log10 of concentration in molar units.

Example cases with answers are listed next.
CCc1ccc(C(OCCc2ccc(OC)c(OC)c2)(c2ccc(CC)cc2)C(Oc2nc(C)cc(OC)n2)C(=O)O)cc1 (stereo not drawn) [Compound I-116] | 7.46
COc1cc(C)nc(OC(C(=O)O)C(OCCc2ccc(OC)c(OC)c2)(c2ccccc2)c2ccccc2)n1 (stereo not drawn) [Compound I-482] | 7.85
COc1ccc(CCOC(c2ccccc2)(c2ccccc2)C(Oc2nc(C)cc(C)n2)C(=O)O)cc1OC (stereo not drawn) [Compound I-445] | 8.14
COc1cc(CCOC(c2ccc(Cl)cc2)(c2ccc(Cl)cc2)C(Oc2nc(OC)c3c(n2)OCC3)C(=O)O)cc(OC)c1 (stereo not drawn) [Compound I-593] | 6.80
COc1ccc(CCOC(c2ccccc2)(c2ccccc2)[C@@H](Oc2nc(C)cc(C)n2)C(=O)O)cc1OC [I-445 (R) enantiomer] | 6.85

Now examine the next entry.
Let me check: COc1ccc(CCOC(c2ccccc2)(c2ccccc2)[C@H](Oc2nc(C)cc(C)n2)C(=O)O)cc1OC [I-445 (S) enantiomer] , system human ETB receptor (Homo sapiens, UniProt P24530), measured pKi is 8.39

====

Reported Ki is given for each of the following compounds.
Target chain: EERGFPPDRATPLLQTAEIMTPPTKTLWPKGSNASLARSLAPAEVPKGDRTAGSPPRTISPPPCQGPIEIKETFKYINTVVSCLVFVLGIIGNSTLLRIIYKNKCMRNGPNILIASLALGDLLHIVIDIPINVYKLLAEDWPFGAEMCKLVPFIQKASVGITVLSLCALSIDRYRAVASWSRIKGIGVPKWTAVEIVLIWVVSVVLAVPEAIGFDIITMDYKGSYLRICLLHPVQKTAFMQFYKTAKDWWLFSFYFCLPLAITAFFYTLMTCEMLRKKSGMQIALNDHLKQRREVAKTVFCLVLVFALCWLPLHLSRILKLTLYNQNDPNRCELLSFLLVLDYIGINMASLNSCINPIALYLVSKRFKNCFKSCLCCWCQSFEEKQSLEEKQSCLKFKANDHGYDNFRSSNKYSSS
Give just the numeric value; nM need not be written.

COc1nc(OC(C(=O)O)C(OCCc2ccc(C)cc2)(c2ccccc2)c2ccccc2)nc2c1CCO2 (stereo not drawn) | 54
COc1ccc(CCOC(c2ccc(Cl)cc2)(c2ccc(Cl)cc2)C(Oc2nc(OC)c3c(n2)OCC3)C(=O)O)cc1OC (stereo not drawn) | 126

Now examine the next entry.
The compound listed as COc1cc(C)nc(OC(C(=O)O)C(OCCCc2ccccc2)(c2ccccc2)c2ccccc2)n1 (stereo not drawn) shows Ki equal to 135
